System: Plasmodium telomeric sequence FPf8T G-quadruplex
Assay: FRET melting experiments, FPf8T
Type: binding, P. falciparum
Settings: 2 μM compound, 0.2 μM oligonucleotide, K+ conditions
Listed here are compounds together with their documented ΔTm FPf8T.
State just the number; it will be interpreted in °C.

> print(dat)
                           molecular.string                               measured.on  recorded.value
1  COc1ccc2c(-c3ccc(CNCCCCN(C)C)cc3)nc(-c3ccc(CNCCCCN(C)C)cc3)cc2c1  Plasmodium telomeric sequence FPf8T G-quadruplex            12.9
2  COc1ccc2nc(-c3ccc(CNCCCCN(C)C)cc3)nc(-c3ccc(CNCCCCN(C)C)cc3)c2c1  Plasmodium telomeric sequence FPf8T G-quadruplex            18.8
3  c1ccc2c(-c3ccc(CNCCCN4CCOCC4)cc3)nc(-c3ccc(CNCCCN4CCOCC4)cc3)nc2c1  Plasmodium telomeric sequence FPf8T G-quadruplex             2.9
4  c1ccc2c(-c3ccc(CNCCN4CCOCC4)cc3)nc(-c3ccc(CNCCN4CCOCC4)cc3)nc2c1  Plasmodium telomeric sequence FPf8T G-quadruplex             1.2

// next entry
Lab note: Plasmodium telomeric sequence FPf8T G-quadruplex assay, enter ΔTm FPf8T for "c1cc(CNCCN2CCOCC2)cc(-c2nc(-c3cccc(CNCCN4CCOCC4)c3)c3ccccc3n2)c1" here 0.5

* * *

The entries below are paired with their reported ΔTm FPf8T.
System: Plasmodium telomeric sequence FPf8T G-quadruplex
Assay: FRET melting experiments, FPf8T
Type: binding, P. falciparum
Conditions: 2 μM compound, 0.2 μM oligonucleotide, K+ conditions
# value in °C; strip the unit string

> print(dat)
                           molecular.string  recorded.value
1  COc1ccc2c(-c3ccc(CNCCCCN(C)C)cc3)nc(-c3ccc(CNCCCCN(C)C)cc3)nc2c1            17.8
2  CN1CCN(CCCNCc2ccc(-c3cc(-c4ccc(CNCCCN5CCN(C)CC5)cc4)c4ccccc4n3)cc2)CC1             9.2
3  COc1ccc2c(-c3ccc(CNCCCN(C)C)cc3)nc(-c3ccc(CNCCCN(C)C)cc3)cc2c1            15.0
4  COc1ccc2nc(-c3ccc(CNCCCN(C)C)cc3)nc(-c3ccc(CNCCCN(C)C)cc3)c2c1            15.6
5  CN(C)CCCNCc1ccc(-c2cc3ccccc3c(-c3ccc(CNCCCN(C)C)cc3)n2)cc1            13.0

Complete the entry with ΔTm FPf8T for "COc1ccc2nc(-c3ccc(CNCCN(C)C)cc3)nc(-c3ccc(CNCCN(C)C)cc3)c2c1" 3.1

Respond only with ΔTm FPf8T recorded for "c1cc(CNCCCN2CCOCC2)cc(-c2cc(-c3cccc(CNCCCN4CCOCC4)c3)c3ccccc3n2)c1" 2.8

* * *

Assay: Cytotoxicity evaluation, MTT
Assay type: cell-based, human
Conditions: human
# note: boundary value 5 µM maps to not fulfilled; CC50 at 72 h below it maps to fulfilled

Please review the entries below; each comes with its answer.
> print(dat)
                                   compound          class
1  CN(C)CCCCNCc1ccc(-c2cc3ccccc3c(-c3ccc(CNCCCCN(C)C)cc3)n2)cc1 [Compound 2a]  not fulfilled
2  COc1ccc2nc(-c3ccc(CNCCCN(C)C)cc3)cc(-c3ccc(CNCCCN(C)C)cc3)c2c1 [Compound 1j]      fulfilled

Lab note: next compound to report on.
Identify whether the compound CN(C)CCCNCc1ccc(-c2cc3ccccc3c(-c3ccc(CNCCCN(C)C)cc3)n2)cc1 [Compound 2b] records CC50 at 72 h below 5 µM. fulfilled

* * *

Test system: P. falciparum CQ-resistant strain W2
Assay: In vitro antiplasmodial activity, SYBR Green I fluorescence-based method, strain W2
Format: cell-based
Conditions: SI = CC50 HepG2 / IC50 P. falciparum W2
I'd appreciate it if you marked entries criterion met when Selectivity index HepG2/W2 is lower than 1 and criterion not met when it is not.

> print(dat)
                            molecular.string                           measured.on              class
 1  COc1ccc2c(-c3ccc(CNCCCCN4CCN(C)CC4)cc3)nc(-c3ccc(CNCCCCN4CCN(C)CC4)cc3)nc2c1  P. falciparum CQ-resistant strain W2  criterion not met
 2  COc1ccc2nc(-c3ccc(CNCCCCN4CCN(C)CC4)cc3)cc(-c3ccc(CNCCCCN4CCN(C)CC4)cc3)c2c1  P. falciparum CQ-resistant strain W2  criterion not met
 3  COc1ccc2c(-c3ccc(CNCCCN4CCN(C)CC4)cc3)cc(-c3ccc(CNCCCN4CCN(C)CC4)cc3)nc2c1  P. falciparum CQ-resistant strain W2  criterion not met
 4  COc1ccc2nc(-c3ccc(CNCCCN4CCN(C)CC4)cc3)nc(-c3ccc(CNCCCN4CCN(C)CC4)cc3)c2c1  P. falciparum CQ-resistant strain W2  criterion not met
 5  COc1ccc2nc(-c3ccc(CNCCCN(C)C)cc3)cc(-c3ccc(CNCCCN(C)C)cc3)c2c1  P. falciparum CQ-resistant strain W2      criterion met
 6  CN(C)CCCCNCc1ccc(-c2cc3ccccc3c(-c3ccc(CNCCCCN(C)C)cc3)n2)cc1  P. falciparum CQ-resistant strain W2  criterion not met
 7  COc1ccc2nc(-c3ccc(CNCCCN4CCN(C)CC4)cc3)cc(-c3ccc(CNCCCN4CCN(C)CC4)cc3)c2c1  P. falciparum CQ-resistant strain W2      criterion met
 8  COc1ccc2c(-c3ccc(CNCCCCN4CCN(C)CC4)cc3)cc(-c3ccc(CNCCCCN4CCN(C)CC4)cc3)nc2c1  P. falciparum CQ-resistant strain W2  criterion not met
 9  CN1CCN(CCCCNCc2ccc(-c3cc4ccccc4c(-c4ccc(CNCCCCN5CCN(C)CC5)cc4)n3)cc2)CC1  P. falciparum CQ-resistant strain W2  criterion not met
10  COc1ccc2c(-c3ccc(CNCCCN4CCN(C)CC4)cc3)nc(-c3ccc(CNCCCN4CCN(C)CC4)cc3)nc2c1  P. falciparum CQ-resistant strain W2      criterion met

Would you kindly verify if Selectivity index HepG2/W2 of "COc1ccc2c(-c3ccc(CNCCCN(C)C)cc3)cc(-c3ccc(CNCCCN(C)C)cc3)nc2c1" is strictly less than 1? criterion met

Please let me know if "CN1CCN(CCCNCc2ccc(-c3cc4ccccc4c(-c4ccc(CNCCCN5CCN(C)CC5)cc4)n3)cc2)CC1" shows Selectivity index HepG2/W2 below 1. criterion not met

hey, is Selectivity index HepG2/W2 for "COc1ccc2c(-c3ccc(CNCCN4CCN(C)CC4)cc3)nc(-c3ccc(CNCCN4CCN(C)CC4)cc3)nc2c1" lower than 1 or not? criterion met

Input "COc1ccc2nc(-c3ccc(CNCCCCN(C)C)cc3)cc(-c3ccc(CNCCCCN(C)C)cc3)c2c1" ; condition: Selectivity index HepG2/W2 strictly below 1. Does it hold? criterion met

* * *

System: Plasmodium telomeric sequence FPf1T G-quadruplex
Test: FRET melting experiments, FPf1T
Assay type: binding, P. falciparum
Settings: 2 μM compound, 0.2 μM oligonucleotide, K+ conditions
ΔTm FPf1T by entry:

Answered cases to consult:
> print(dat)
                           molecular.string                               measured.on  recorded.value
1  c1cc(CNCCCN2CCOCC2)cc(-c2cc(-c3cccc(CNCCCN4CCOCC4)c3)c3ccccc3n2)c1  Plasmodium telomeric sequence FPf1T G-quadruplex    3.0 ± 0.4 °C
2  COc1ccc2nc(-c3ccc(CNCCN(C)C)cc3)nc(-c3ccc(CNCCN(C)C)cc3)c2c1  Plasmodium telomeric sequence FPf1T G-quadruplex    3.4 ± 0.4 °C
3  c1ccc2c(-c3ccc(CNCCCN4CCOCC4)cc3)nc(-c3ccc(CNCCCN4CCOCC4)cc3)nc2c1  Plasmodium telomeric sequence FPf1T G-quadruplex    3.3 ± 0.3 °C
4  CN(C)CCNCc1ccc(-c2cc(-c3ccc(CNCCN(C)C)cc3)c3ccccc3n2)cc1  Plasmodium telomeric sequence FPf1T G-quadruplex    2.3 ± 0.7 °C

Next:
Fill in reported ΔTm FPf1T for this entry: "CN(C)CCCNCc1ccc(-c2cc3ccccc3c(-c3ccc(CNCCCN(C)C)cc3)n2)cc1" 13.6 ± 1.3 °C

* * *

Tested on: human duplex sequence FdxT
Assay: FRET melting experiments, FdxT duplex control
Assay type: binding
Conditions: 2 μM compound, 0.2 μM oligonucleotide, K+ conditions
Reported endpoint: ΔTm FdxT (°C)
# unit: °C | format: bare number

> print(dat)
                                    compound                 measured.on  unit.descriptor  recorded.value
 1  c1ccc2c(-c3ccc(CNCCCN4CCOCC4)cc3)cc(-c3ccc(CNCCCN4CCOCC4)cc3)nc2c1 [Compound 1g]  human duplex sequence FdxT               °C            −1.8
 2  COc1ccc2cc(-c3ccc(CNCCCCN(C)C)cc3)nc(-c3ccc(CNCCCCN(C)C)cc3)c2c1 [Compound 2e]  human duplex sequence FdxT               °C             4.1
 3  c1cc(CNCCN2CCOCC2)cc(-c2nc(-c3cccc(CNCCN4CCOCC4)c3)c3ccccc3n2)c1 [Compound 3v]  human duplex sequence FdxT               °C             0.0
 4  COc1ccc2nc(-c3ccc(CNCCCCN(C)C)cc3)nc(-c3ccc(CNCCCCN(C)C)cc3)c2c1 [Compound 3h]  human duplex sequence FdxT               °C             2.0
 5  COc1ccc2c(-c3ccc(CNCCCCN(C)C)cc3)nc(-c3ccc(CNCCCCN(C)C)cc3)nc2c1 [Compound 3m]  human duplex sequence FdxT               °C             1.7
 6  COc1ccc2nc(-c3ccc(CNCCN(C)C)cc3)nc(-c3ccc(CNCCN(C)C)cc3)c2c1 [Compound 3j]  human duplex sequence FdxT               °C            −0.4
 7  CN1CCN(CCNCc2ccc(-c3cc(-c4ccc(CNCCN5CCN(C)CC5)cc4)c4ccccc4n3)cc2)CC1 [Compound 1f]  human duplex sequence FdxT               °C            −0.1
 8  COc1ccc2c(-c3ccc(CNCCCN(C)C)cc3)nc(-c3ccc(CNCCCN(C)C)cc3)cc2c1 [Compound 2j]  human duplex sequence FdxT               °C             0.5
 9  COc1ccc2nc(-c3ccc(CNCCCN(C)C)cc3)nc(-c3ccc(CNCCCN(C)C)cc3)c2c1 [Compound 3i]  human duplex sequence FdxT               °C             0.3
10  COc1ccc2cc(-c3ccc(CNCCCN(C)C)cc3)nc(-c3ccc(CNCCCN(C)C)cc3)c2c1 [Compound 2f]  human duplex sequence FdxT               °C             0.8

State its ΔTm FdxT for this compound: CN(C)CCNCc1ccc(-c2cc(-c3ccc(CNCCN(C)C)cc3)c3ccccc3n2)cc1 [Compound 1c] −0.5

For the compound COc1ccc2c(-c3ccc(CNCCCCN(C)C)cc3)nc(-c3ccc(CNCCCCN(C)C)cc3)cc2c1 [Compound 2i] , report ΔTm FdxT. 0.9

Let me know recorded ΔTm FdxT for c1cc(CNCCN2CCOCC2)cc(-c2cc(-c3cccc(CNCCN4CCOCC4)c3)c3ccccc3n2)c1 [Compound 1t] , thanks. −1.6

Fill in ΔTm FdxT for record CN1CCN(CCCNCc2ccc(-c3cc(-c4ccc(CNCCCN5CCN(C)CC5)cc4)c4ccccc4n3)cc2)CC1 [Compound 1e] 0.1

Give the reported value of ΔTm FdxT for this record: CN(C)CCCNCc1ccc(-c2cc(-c3ccc(CNCCCN(C)C)cc3)c3ccccc3n2)cc1 [Compound 1b] 0.0

Give the reported ΔTm FdxT for this compound. c1ccc2c(-c3ccc(CNCCN4CCOCC4)cc3)nc(-c3ccc(CNCCN4CCOCC4)cc3)nc2c1 [Compound 3g] 0.3

Return value of ΔTm FdxT for input CN(C)CCCNCc1ccc(-c2cc3ccccc3c(-c3ccc(CNCCCN(C)C)cc3)n2)cc1 [Compound 2b] , no commentary. 0.3

Name the recorded ΔTm FdxT of the item c1ccc2c(-c3ccc(CNCCCN4CCOCC4)cc3)nc(-c3ccc(CNCCCN4CCOCC4)cc3)nc2c1 [Compound 3f] in your answer. −0.2

Quick one: give measured ΔTm FdxT for c1cc(CNCCCN2CCOCC2)cc(-c2cc(-c3cccc(CNCCCN4CCOCC4)c3)c3ccccc3n2)c1 [Compound 1s] −1.5

Provide measured ΔTm FdxT value, entry: CN(C)CCCNCc1ccc(-c2nc(-c3ccc(CNCCCN(C)C)cc3)c3ccccc3n2)cc1 [Compound 3b] 0.1
